Cited source: the RNAGym collection of RNA variant scans (doi:10.1073/pnas.2313332121)

B1: TPR t1 (parent)
chain: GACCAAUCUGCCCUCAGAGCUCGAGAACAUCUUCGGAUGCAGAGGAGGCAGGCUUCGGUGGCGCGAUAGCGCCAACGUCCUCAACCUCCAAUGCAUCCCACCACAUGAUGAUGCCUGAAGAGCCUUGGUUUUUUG

Variants of: B1
Test: polymerase ribozyme fitness, log enrichment relative to wild type (log ratio); higher = more active; in vitro selection for triplet polymerase activity

variant annotation: G10U U21G C70A
polymerase ribozyme fitness (log ratio): -5.22

variant annotation: C56A C88U G120U
polymerase ribozyme fitness (log ratio): -0.86

variant annotation: U7A C11A U14G G45U C53U C70A G113A G120U U133A
polymerase ribozyme fitness (log ratio): -4.43

variant annotation: C11A U87A
polymerase ribozyme fitness (log ratio): -1.66

variant annotation: U21A G45U C101U U106C
polymerase ribozyme fitness (log ratio): -4.17

variant annotation: G44U U112A
polymerase ribozyme fitness (log ratio): 0.425

variant annotation: C8A U38A G42U G45A
polymerase ribozyme fitness (log ratio): -2.61

variant annotation: A91G C115U
polymerase ribozyme fitness (log ratio): -1.36

variant annotation: C70A C73G G120C
polymerase ribozyme fitness (log ratio): -5.26

variant annotation: G42C G71U G117A
polymerase ribozyme fitness (log ratio): -4.04

variant annotation: A26G C62U U133A
polymerase ribozyme fitness (log ratio): -4.26

variant annotation: U9G A43C
polymerase ribozyme fitness (log ratio): -1.01

variant annotation: C40A G44U G45A
polymerase ribozyme fitness (log ratio): -3.66

variant annotation: G51U U78C A111C C123U
polymerase ribozyme fitness (log ratio): -6.69

variant annotation: G110U U125A
polymerase ribozyme fitness (log ratio): -0.916

variant annotation: U9G C20U U87G
polymerase ribozyme fitness (log ratio): -0.825

variant annotation: U92A G113C
polymerase ribozyme fitness (log ratio): -3.49

variant annotation: C3A G110C U112A G117A U132C
polymerase ribozyme fitness (log ratio): -6.59

variant annotation: U7A C13U C15U G44U U59C G77U
polymerase ribozyme fitness (log ratio): -2.18

variant annotation: C8G G69C G113A
polymerase ribozyme fitness (log ratio): -1.36

variant annotation: C11A A26U C72A
polymerase ribozyme fitness (log ratio): -5.37

variant annotation: C86A G135U
polymerase ribozyme fitness (log ratio): -1.3
